System: NCI-H522
Assay Comment: NCI tumour cell line growth inhibition, 48 h
Activity calls are given as the source filed them. Rule as the data show it: active = GI50 up to about 1.1 µM and inactive = higher.
Log the outcome using a class from active, inactive

Query block: Query: recorded result category for OCCNCCN1CCN(CCCN2c3ccccc3Sc3ccc(C(F)(F)F)cc32)CC1 in this test
Result block: inactive

Query block: Query: recorded result category for O=c1ccc2ccc(OP(=O)(O)O)cc2o1 in this test
Result block: inactive

Query block: Query: recorded result category for O=C1/C(=C/c2ccc([N+](=O)[O-])cc2)Sc2scc(-c3cccc([N+](=O)[O-])c3)[n+]21 in this test
Result block: active

Query block: Query: recorded result category for COc1cccc(/C=C2/S/C(=N/Nc3nc(C)c(C(C)=O)s3)NC2=O)c1O in this test
Result block: inactive

Query block: Query: recorded result category for Nc1nc(-c2ccc3ccccc3c2)cc(-c2cc(-c3ccc4ccccc4c3)nc(N)n2)n1 in this test
Result block: inactive

Query block: Query: recorded result category for CCOC(=O)C(=O)Nc1ccc([N+](=O)[O-])cc1C#N in this test
Result block: inactive

###

System: OVCAR-5
Assay Comment: NCI tumour cell line growth inhibition, 48 h
The source made the active and inactive calls. Rule as the data show it: active = GI50 up to about 1.1 µM and inactive = higher.
Test Readout: GI50

Item: COc1cc2c(cc1OC)C(=O)N1CCCC1C(=O)S2 (stereo unspecified) | GI50: > 100 µM (inactive)

Item: N=C(N)NCC(N)C(=O)O (stereo unspecified) | GI50: > 100 µM (inactive)

Item: COc1ccc2c(c1)[n+]([O-])c(C(C)=O)c(C)[n+]2[O-] | GI50: > 100 µM (inactive)

Item: CSC1(C)C(=O)Nc2c(OCc3ccccc3)cc([N+](=O)[O-])cc21 (stereo unspecified) | GI50: 63 µM (inactive)

Item: O=C1c2ccccc2C(=O)c2nc3ccc(Cl)cc3cc21 | GI50: > 100 µM (inactive)

Item: CC1CC2(OC2C)C(=O)OC2CCN(C)C/C=C(/COC(=O)C1(C)O)C2=O (stereo unspecified) | GI50: > 100 µM (inactive)

###

System: SR
Assay Comment: NCI tumour cell line growth inhibition, 48 h
Active and inactive are the calls of the source. Rule as the data show it: active = GI50 up to about 1.1 µM and inactive = higher.
Log the outcome using a class from Yes for active, No for inactive

Query block: Query: recorded result category for Cc1ccc(C(=O)/C=C(\O)C(=O)NN=C(c2ccccc2)c2ccccc2)cc1 in this test
Result block: No

Query block: Query: recorded result category for c1ccc(/N=C(\N2CCCCC2)N(CCN2CCCCC2)c2ccccc2)cc1 in this test
Result block: Yes

Query block: Query: recorded result category for O=C1c2ccccc2C(=O)c2[nH]c(=O)c(/C=N/Nc3ccc([N+](=O)[O-])cc3)nc21 in this test
Result block: No

Query block: Query: recorded result category for O=C1C=CC(=O)c2c1cc1ccccc1c2O in this test
Result block: Yes

Query block: Query: recorded result category for COc1nc2c(N3CCCC3)nc(N3CCNCC3)nc2nc1NCc1ccccc1 in this test
Result block: No

Query block: Query: recorded result category for COc1cc(=O)oc(/C=C/C=O)c1C in this test
Result block: No

Query block: Query: recorded result category for Cc1ccc(S(=O)(=O)N/N=C2/C3C(CC2(C)C)C2(C)CCCC3(C)C2O)cc1 (stereo unspecified) in this test
Result block: No

Query block: Query: recorded result category for CCCCCCCCOC1C(O)C(O)C(O)C(O)C12CO2 (stereo unspecified) in this test
Result block: No

Query block: Query: recorded result category for CSC1(SC)N2Cc3ccccc3N=C2C1(c1ccccc1)c1ccccc1 in this test
Result block: No

Query block: Query: recorded result category for N/C(=N\c1ccccc1Cl)c1ccccc1N in this test
Result block: No

Query block: Query: recorded result category for COc1cc2ccnc3c2c(c1OC)CC1CC(O)C(OC)CC31 (stereo unspecified) in this test
Result block: No

###

Test system: M19-MEL
Assay Comment: NCI tumour cell line growth inhibition, 48 h
Calls of active or inactive are those of the source. No stated cut-off is given here; in the data, active = GI50 up to about 1.1 µM and inactive = higher.
Could you please report measured GI50 for the items listed next?

Item: Cc1ccc(S(=O)(=O)OCCOCCOCCOCCOCCOS(=O)(=O)c2ccc(C)cc2)cc1 | GI50: 30.3 µM (inactive)

Item: Oc1ccc(-c2n[nH]c(S)n2)cc1 | GI50: > 100 µM (inactive)

Item: c1ccc(C2N3CCCCC3[C@@H]3c4[nH]c5ccccc5c4CCN23)cc1 (stereo partly drawn) | GI50: 58.2 µM (inactive)

Item: CCCCCCCCCCCCn1[nH]c(C)c(C(=S)SCCCCCCCC)c1=O | GI50: 23.6 µM (inactive)

Item: NCCCC(N/C=C1/N=C(c2ccccc2)OC1=O)C(=O)O (stereo not drawn) | GI50: > 100 µM (inactive)

Item: COc1nc(NC2OC(COC(C)=O)C(OC(C)=O)C(OC(C)=O)C2OC(C)=O)c(-c2csc(N)n2)c(=O)n1C (stereo not drawn) | GI50: 36.5 µM (inactive)

Item: COC(=O)C1=Cc2cc(OC)c(OC)cc2[C@H](c2ccc(OC)c(OC)c2)C1C(=O)OC (stereo partly drawn) | GI50: > 100 µM (inactive)

Item: O=C1CCC(=O)c2c1c(O)c1ccncc1c2O | GI50: 2.92 µM (inactive)

Item: C=COC(=O)N[C@H]1CCc2cc(OC)c(OC)c(OC)c2-c2ccc(SC)c(=O)cc21 | GI50: < 0.01 µM (active)

Item: CCN(CC)CCn1nc2c3c(c(NCCN)ccc31)Sc1cc(O)ccc1-2 | GI50: 0.347 µM (active)

Item: O=C(O)C12C3CCC(C3)C1(C(=O)O)C1CCC2C1 (stereo not drawn) | GI50: 92.5 µM (inactive)

Item: CCN(CC)CCn1c2ccccc2c(=O)c2c(OC)ccc(OC)c21 | GI50: 65 µM (inactive)

Item: N#C/C(=C\c1ccc2ccccc2c1)c1ccccc1 | GI50: 26.6 µM (inactive)

###

Tested on: A549
Assay Comment: NCI tumour cell line growth inhibition, 48 h
The source made the active and inactive calls. Rule as the data show it: active = GI50 up to about 1.1 µM and inactive = higher.
Test Readout: GI50

GET /values?item= OC1(CCc2ccccc2)COC(C(F)(F)F)(C(F)(F)F)C1 (configuration not stated) &system= A549 returns GI50: > 100 µM (inactive)

GET /values?item= COc1ccc2nc3cc(Cl)ccc3c(NCCCCCC(=O)NC(COc3ccc4ccc5cccnc5c4n3)COc3ccc4ccc5cccnc5c4n3)c2c1 &system= A549 returns GI50: 15.5 µM (inactive)

GET /values?item= O=C1C=CC(=O)c2c1cc1ccccc1c2O &system= A549 returns GI50: 16.7 µM (inactive)

GET /values?item= O=c1oc(-c2ccc(O)c(O)c2)cc2cccc(O)c12 &system= A549 returns GI50: 35.4 µM (inactive)

GET /values?item= N#Cc1c(-c2ccc(Cl)cc2)c(C#N)c(=O)n(NS(=O)(=O)c2ccccc2)c1O &system= A549 returns GI50: 28.8 µM (inactive)

GET /values?item= COC(=O)C(C(=O)C(=O)Nc1nc2ccc([N+](=O)[O-])cc2s1)c1nc2ccc(Cl)cc2nc1O (configuration not stated) &system= A549 returns GI50: > 100 µM (inactive)

GET /values?item= Clc1cccc(/C=c2\nc(-c3ccccc3)n3c2nc2ccccc23)c1 &system= A549 returns GI50: > 100 µM (inactive)

GET /values?item= CCNC(=S)N/N=C/c1ccccn1 &system= A549 returns GI50: 7.62 µM (inactive)

GET /values?item= C=CC1=C(C)c2cc3[nH]c(c4c5nc(cc6[nH]c(cc1n2)c(C=O)c6CC)C(C)=C5C(=O)[C@@H]4C(=O)OC)[C@@H](CCC(=O)O)[C@@H]3C &system= A549 returns GI50: > 100 µM (inactive)

GET /values?item= CCO[C@]12C[C@H](OC)[C@@]3(O)CC(C1[C@H]3OCc1ccccc1)C13C4C2[C@H](OC)C1[C@](COC)(CN4CC)[C@H](O)C[C@@H]3OC (some centres not stated) &system= A549 returns GI50: > 100 µM (inactive)

GET /values?item= O=C1C(Br)=C(Br)C(=O)c2ccc(=O)ccc21 &system= A549 returns GI50: 70.6 µM (inactive)

GET /values?item= N/C(=N\O)N/N=C/c1cc2c(cc1Cl)OCO2 &system= A549 returns GI50: 36.8 µM (inactive)

###

Test system: A549
Assay Comment: NCI tumour cell line growth inhibition, 48 h
Active and inactive are the calls of the source. Rule as the data show it: active = GI50 up to about 1.1 µM and inactive = higher.
Could you please report measured GI50 for the items listed next?

Item: C[C@]12CC[C@H](O)C=C1CC[C@@H]1[C@@H]2CC[C@]2(C)C(=N/O)/C(=C/c3ccncc3)C[C@@H]12 | GI50: 5.19 µM (inactive)

Item: CN(C)NC(=O)/C(=C/c1ccc(Cl)cc1)NC(=O)c1ccccc1 | GI50: > 100 µM (inactive)

Item: O=C(NCCCNCCCCNCCCNC(=O)C(F)(F)F)C(F)(F)F | GI50: > 100 µM (inactive)

Item: CC(C)(C)[C@H]1NC(=O)CN1C(=O)OCc1ccccc1 | GI50: > 100 µM (inactive)

Item: COc1cccc(/C=N/C(/N=C/c2cccc(OC)c2O)c2cccc(OC)c2O)c1O | GI50: 26.7 µM (inactive)

Item: CS/C(=N\C#N)S/C=C/C(=O)c1ccc(Cl)cc1 | GI50: > 100 µM (inactive)

Item: O=C1Nc2ccccc2C1S(=O)(=O)c1ccccc1 (stereo not given) | GI50: > 100 µM (inactive)

Item: Nc1ccc2cc(S(=O)(=O)O)cc(O)c2c1/N=N/c1ccc(NC(=O)Nc2ccc(/N=N/c3c(N)ccc4cc(S(=O)(=O)O)cc(O)c34)c(S(=O)(=O)O)c2)cc1S(=O)(=O)O | GI50: > 100 µM (inactive)

Item: O=C(O[C@@H](/C=C/c1ccccc1)P1(=O)N(Cc2ccccc2)[C@@H]2CCCC[C@H]2N1Cc1ccccc1)c1ccccc1 | GI50: 3.07 µM (inactive)

Item: COC(=O)C1CCC(=O)C(Sc2ccccc2)C1 (stereo not given) | GI50: > 100 µM (inactive)

Item: O=C(N/C(=C\c1ccc(Oc2ccc(Cl)c(Cl)c2)cc1)c1nc2ccccc2[nH]1)c1ccccc1 | GI50: 17.9 µM (inactive)

Item: CC(C)(C)c1ccc(OCC(=O)O)c(Cl)c1 | GI50: > 100 µM (inactive)

Item: COc1ccc(C(=O)c2c3cc(OC)c(OC)c(OC)c3cc[n+]2C)cc1 | GI50: 17.8 µM (inactive)

Item: O=c1[nH]cnc2c(COCCCO)c[nH]c12 | GI50: > 100 µM (inactive)

Item: O=C1c2ccccc2C(=O)c2c(NC3CCCCC3)ccc(Nc3ccc(S(=O)(=O)O)cc3)c21 | GI50: 33.9 µM (inactive)

Item: CC(C)(C)OC(=O)NCCNC(=O)OCc1ccccc1 | GI50: > 100 µM (inactive)

Item: N#CCCN(CCCCN(CCC#N)C(=O)Nc1ccccc1)C(=O)Nc1ccccc1 | GI50: > 100 µM (inactive)

Item: COc1nc(NC2OC(COC(C)=O)C(OC(C)=O)C(OC(C)=O)C2OC(C)=O)c(-c2csc(N)n2)c(=O)n1C (stereo not given) | GI50: 55 µM (inactive)

Item: CO/C(=N\N=Cc1ccccc1)c1ccncc1 | GI50: > 100 µM (inactive)

Item: COC1(OC)CC(CO)(COc2cc(Cl)nc(N)n2)C1 | GI50: > 100 µM (inactive)
